experimental-endpoint: O2 permeability (Barrer)

*c1c(C)cc(C)c(-n2c(=O)c3cc4c(=O)n(*)c(=O)c4cc3c2=O)c1C (repeat unit) | 36.3
*Oc1c(C)cc(C(C)(C)c2ccc(C(C)(C)c3cc(C)c(Oc4ccc(S(=O)(=O)c5ccc(*)cc5)cc4)c(C)c3)cc2)cc1C (repeat unit) | 3.2
*c1c(C)cc(C)c(N2C(=O)c3ccc(C(c4ccc5c(c4)C(=O)N(*)C5=O)(C(F)(F)F)C(F)(F)F)cc3C2=O)c1C (repeat unit) | 87.7

A: *Oc1ccc(S(=O)(=O)c2ccc(Oc3ccc(C(C)(C)c4ccc(*)cc4)cc3CN3C(=O)c4ccccc4C3=O)cc2)cc1 (repeat unit)
B: *c1ccc(Oc2ccc(S(=O)(=O)c3ccc(Oc4ccc(N5C(=O)c6ccc(-c7ccc8c(c7)C(=O)N(*)C8=O)cc6C5=O)cc4)cc3)cc2)cc1 (repeat unit)
Task: Endpoint returns the identifier whose O2 permeability is numerically larger, either A or B . // respond with label for picked entry
Result: A

---

experimental-endpoint: N2 permeability (Barrer)

*C(=C(*)c1cccc(O[Si](C)(C)C(C)(C)C)c1)c1ccc([Si](C)(C)C)cc1 (repeat unit) | 430

A: *c1c(C)c2c(c(N3C(=O)c4ccc(-c5ccc6c(c5)C(=O)N(*)C6=O)cc4C3=O)c1C)C(C)(C)CC2 (repeat unit)
B: *c1ccc(Oc2ccc(-n3c(=O)c4cc5c(=O)n(*)c(=O)c5cc4c3=O)cc2)cc1 (repeat unit)
Task: Of A and B , whose reported N2 permeability is the larger number? Label of pick, please.
Result: A
(A: 22 Barrer, B: 0.0995 Barrer)

I: *Oc1ccc(Oc2ccc(C(=O)c3ccc(*)cc3)cc2)c(-c2cc(C)cc(C)c2)c1 (repeat unit)
II: *c1cc(C)c2c(c1)S(=O)(=O)c1cc(N3C(=O)c4ccc(-c5ccc6c(c5)C(=O)N(*)C6=O)cc4C3=O)cc(C)c1-2 (repeat unit)
III: *Oc1ccc(-c2ccc(C3CCC(Oc4ccc(C5(c6ccc(*)cc6)c6ccccc6-c6ccccc65)cc4)C(C(F)(F)F)C3)s2)cc1C(F)(F)F (repeat unit)
Task: Please list these in order of increasing N2 permeability. Thank you! The reply should contain the labels ordered as requested.
Result: I, II, III
(I: 0.053 Barrer, II: 0.499 Barrer, III: 1.99 Barrer)

---

experimental-endpoint: O2 permeability (Barrer)

*O[Si](C)(C)CC[Si](*)(C)C (repeat unit) | 394
*c1ccc(-c2ccc(N3C(=O)c4ccc(Oc5cc(C(C)(C)C)ccc5Oc5ccc6c(c5)C(=O)N(*)C6=O)cc4C3=O)c(OC)c2)cc1OC (repeat unit) | 1.4
*[Si](C)(C)CCCCCCCC[Si](*)(C)C (repeat unit) | 188
*Oc1ccc(Cc2ccc(Oc3ccc(S(=O)(=O)c4ccc(*)cc4)cc3)cc2)cc1 (repeat unit) | 1.1
*Cc1cc(Cl)c(C*)cc1Cl (repeat unit) | 0.181

---

experimental-endpoint: CH4 permeability (Barrer)

*Oc1c(C)cc(-c2cc(C)c(Oc3ccc(S(=O)(=O)c4ccc(*)cc4)cc3)c(C)c2C)c(C)c1C (repeat unit) | 0.94
*O[Si](*)(C)c1ccccc1 (repeat unit) | 36
*CC(*)(C)C(=O)OCC (repeat unit) | 0.347

I: *c1ccc(Oc2ccc(N3C(=O)c4ccc(C(=O)c5ccc6c(c5)C(=O)N(*)C6=O)cc4C3=O)cc2)cc1 (repeat unit)
II: *Oc1ccc(C(c2ccc(Oc3ccc(C(=O)c4ccc(C(C)(C)c5ccc(C(=O)c6ccc(*)cc6)cc5)cc4)cc3)cc2)(C(F)(F)F)C(F)(F)F)cc1 (repeat unit)
III: *Oc1c(-c2ccccc2)cc(*)cc1-c1ccccc1 (repeat unit)
IV: *C(=C(*)c1ccc2c(c1)Cc1ccccc1-2)c1ccccc1 (repeat unit)
V: *c1ccc(Cc2ccc(N3C(=O)c4ccc(-c5ccc6c(c5)C(=O)N(*)C6=O)cc4C3=O)cc2)cc1 (repeat unit)
Task: Order field: CH4 permeability | Direction: descending (largest first) Answer with the labels in sequence, matching the requested order.
Result: IV, III, II, V, I
